# Test system: LOX IMVI melanoma
# Procedure Details: NCI-60 one-dose screen, 48 h
# Measurement Context: 10 µM unless noted
# Method: Growth inhibition of the LOX IMVI human tumor cell line is measured as a screen for anti-cancer activity. Cells are grown in 96 well plates and exposed to the test compound for 48 hours. Compounds are tested at a single concentration, which is 10^-5 M for most compounds. The reported endpoint is percent growth (GI% or GIPRCNT), where numbers from 0 - 100% represent growth inhibition, and numbers from -100% - 0 represent cell death. For example, a value of 40 represents 60% growth inhibition. […]
The panel holds about 83,000 compounds, 20% with a hit somewhere; the sample as a whole holds those more often. Calls of active or inactive are those of the source. The calls were made as follows: active = growth percent below 10; inactive = the rest.
// one of Y (active), N (inactive), no free text

Solved entries (count: 5):
Give the logged outcome of this assay for the following molecule: `CCC(=O)Nc1ccc(-c2nc(-c3cccc(O)c3)c(-c3ccnc(Br)c3)[nH]2)cc1`
N

Give the logged outcome of this assay for the following molecule: `COc1cc2c3c(n(CCCN4CCCCC4)c(=O)c2cc1OC)-c1cc2c(cc1C3=O)OCO2`
Y

Give the logged outcome of this assay for the following molecule: `Cc1cc(O)c2c(c1)C(=O)C(c1c(C)cc3c(c1O)C(=O)C=CC3=O)=CC2=O`
N

Give the logged outcome of this assay for the following molecule: `CN(C)CCn1c2ccc(N)cc2c2nc3ccccc3nc21`
Y

Give the logged outcome of this assay for the following molecule: CC1CCc2c(sc3nc(SCC(=O)N/N=C/c4cccc(O)c4O)n(-c4ccccc4)c(=O)c23)C1 (centres undefined)
N

Next:
Give the logged outcome of this assay for the following molecule: `O=C(Cn1cc(CN2C(=O)c3ccc([N+](=O)[O-])cc3C2=O)nn1)Nc1ccc(F)cc1Cl`
N

Give the logged outcome of this assay for the following molecule: `Cc1ccc(-c2cc3nc(C(Cl)Cl)nc(-c4ccccc4)n3n2)cc1`
N

Give the logged outcome of this assay for the following molecule: `C#CCOc1ccc(/C=N/Nc2nc(-c3cc(Cl)ccc3Cl)cs2)cc1`
N

Give the logged outcome of this assay for the following molecule: `CCNC(=O)Oc1ccc(/C(=C(/C)c2ccc(Cl)cc2)c2ccc(OCCN(C)C)cc2)cc1`
N

---

# System: PC-3 prostate
# Procedure Details: NCI-60 one-dose screen, 48 h (100 = growth as untreated, 0 = no growth, -100 = all killed)
# Measurement Context: 10 µM unless noted
# Experimental: Growth inhibition of the PC-3 human tumor cell line is measured as a screen for anti-cancer activity. Cells are grown in 96 well plates and exposed to the test compound for 48 hours. Compounds are tested at a single concentration, which is 10^-5 M for most compounds. The reported endpoint is percent growth (GI% or GIPRCNT), where numbers from 0 - 100% represent growth inhibition, and numbers from -100% - 0 represent cell death. For example, a value of 40 represents 60% growth inhibition. […]
About 83,000 compounds went through this panel and 20% of them were active in at least one assay; those are over-represented in the sample as a whole. Calls of active or inactive are those of the source. The calls were made as follows: active = growth percent below 10; inactive = the rest.
Reported growth values are given for each entry in this list.

Past entries and their recorded results:
Fill in: growth of `C/C=C/[C@@H]1C=C[C@@H]2C[C@H](C)CC[C@H]2[C@]1(C)/C(O)=C1/C(=O)[C@H](CO)N(C)C1=O` is ___
45.7% (inactive)

Fill in: growth of `Nc1n[nH]c2cccc(C#Cc3cccc(NC(=O)c4cccc(OC(F)(F)F)c4)c3)c12` is ___
68.3% (inactive)

Fill in: growth of CCCC(=O)NC(c1cccnc1)c1cc(Cl)c2cccnc2c1O (stereo unspecified) is ___
41.1% (inactive)

Fill in: growth of `COC1=C(c2ccccc2)C(=O)C(OC)=C(c2ccccc2)C1=O` is ___
96.2% (inactive)

Fill in: growth of C#CCOc1ccc(C(Nc2ccc(OC)cc2)c2nnnn2C2CCCCC2)cc1 (stereo unspecified) is ___
93.8% (inactive)

Next:
Fill in: growth of `C=C1C(=O)O[C@@H]2C[C@@H](C)CCC(=O)[C@](C)(OC(C)=O)C[C@H](OC(=O)/C(C)=C\C)[C@@H]12` is ___
79.1% (inactive)

Fill in: growth of `C#Cc1ccc(NC(=O)c2ccc(/C=C/C(=O)c3nccn3C)cc2)c(F)c1` is ___
29.9% (inactive)
